Entry source: ChEMBL document CHEMBL1201862

system: A498; experiment: NCI tumour cell line growth inhibition, 48 h
Calls of active or inactive are those of the source. No stated cut-off is given here; in the data, active = GI50 up to about 1.1 µM and inactive = higher.
READOUT LABEL: GI50

Observe how each entry below is paired with its result.
[[record]]
compound = "CCOC(=O)c1c(Nc2ccccc2)sc2cccnc12"
test_result = "3.56 µM (inactive)"

[[record]]
compound = "COc1ccc2nc3cc(Cl)ccc3c(NCCC(=O)OCC(O)C(O)C(O[C@H](C)C(=O)NC(C)C(=O)NC(CCC(N)=O)C(=O)OCc3ccccc3)C(C=O)NC(C)=O)c2c1 (stereo not given in full)"
test_result = "21 µM (inactive)"

[[record]]
compound = "O=C(CC(=O)n1nc(-c2ccccc2)c(/N=N/c2ccc(Cl)cc2)c1-c1ccccc1)Nc1ccc(Cl)cc1"
test_result = "> 100 µM (inactive)"

[[record]]
compound = "Cc1cc2nc3ccc(N(C)C)cc3[s+]c2cc1N [TOLONIUM CHLORIDE]"
test_result = "21.3 µM (inactive)"


Lookup: Entry CC(C(O)c1ccccc1)C(O)(C(F)(F)F)C(F)(F)F (stereo not given) : reported GI50 = ?
Found: > 100 µM (inactive)
